Assay: yeast display, Sf9 membrane polyspecificity reagent, FACS + sequencing; frameworks hold sequencing errors

Chain	polyreactivity (PSR sort gate)
QVQLVDSRGGLDQAGGSHRLSCAASGSTFSTNVMGWYRQAPGKERELVAAISISGTTTYYADSVKGRFTISRDNAKNTVYLQMNSLKPEDTAVYYCAAENYVAWTWHDYWGQGTQVTVSS	high polyreactivity
QVQLVESGGGLVQAGGSLRLTCAASGITFTIYAMGWYRLATGKERELVAAISWSGTSTYYADSVKGRFTISRDNAKNTVYLKMNSLKQEDTAVYYCAADYTTSQGDSELDYWGQGTQVTVSS	low polyreactivity
QVQLVESGGGLVQAGGSLRLSCAASGITFYDNDMGWYRQAPGKERELVAGITGTTVGTYYADSVKGRFTISRDYAKNTVYLQMNSLKPEDTAVYYCAATSLAGYYQFDYWGQGTQVTVSS	low polyreactivity
QDQLVESGGGLVQAGGSLRLSCAASGITIWRYAMGWYRQAPGKERELVAAISWSGSRTYYADSVKGRFTISRDNAKNTVYLQMNSLKPEDTAVYYCAAAFDLWITITGFDYWGQGTQVTVSS	low polyreactivity
QVQLVESGGGLVQAGGSLRLTCAASGFTFSPNAMGWYRQAPGKERELVAAIDWSGDRTYYADSVKGRFTISRDNAKNTVYLQMNSLKPEDTAVYYCNVVGRSPGDYSYYYSGQGTQVTVSS	low polyreactivity
QVQLVESGGGLVQAGGSLRLICAASGRTFFRYGMGWYRQAPGKEREFVAAITRSGTTTYYADSVKGRFTISRDNAKNTVYLQMNSLKPEDTAVYYCDAQRAAPVDGKSDYWGQGTQVTLSS	low polyreactivity
QVQLVESGGGLVQAGGSLRLSSAASGSIFGYNPMGWYRPAPGKERELVAAIRISTDNTYYADSVKGRFTISRDNAKNTVYLQMNSLKPEDTAVDYCAADEYWWGYYYWGQGTQVTVSS	high polyreactivity
QVQLVESGGGLLQAGGSLRLSCAASGITLSYYVMGWYRQAPGKERELVAAINQSGSRTYYADSVKGRFTISRDNPKNSVYLQMNSLKPEDTAVYYCAGVFSYQPTSGYGYWGQGTQVTVSS	high polyreactivity
QVQLVESGGGLVQAGGSLRLSCAASGFIFGGYAMGWYRQAPGKERELVAAITWSGGNTYYADSVKGRFTISRDNAKNTVYLQMNSLKPEDTAVYYCAADYWTKYGYWGLGTQVTVSS	low polyreactivity
QVQLVESGGGLVQAGGILSLSCAASGNIFAYNAMGWYRQAPGKERELVAAITDSGGNTFYADSVKGRFTISRDNAKNTVYLQMISVKPEDTAVYYCAADPDGWGFVYPRYVSWGQGTQVTVSS	low polyreactivity

====

Assay: yeast display, Sf9 membrane polyspecificity reagent, FACS + sequencing; frameworks hold sequencing errors

Chain	polyreactivity (PSR sort gate)
QVQLVESGGGLVQAGGSLRLSCAASGRTFQFYAMGWYRKAPGKEREFVAAIDLRGGSTYYADSVKGRFTISRDNAKNRVYLQMNSLKPEDTAVYYCNATRSKFGYFYRYDYWGQGTQVTVSS	low polyreactivity
QVQLVESGGGLVQAGGSLRLSCAAYGFIIARNAMGWYRQAPGKERELVAAISAAGGRTYYADSVKGRFTISRDNAKITVYFQMNSLKPEDTAVYYCAARRDGRCGSYNYWGQGTQVTVSS	high polyreactivity
QVQLVESGGGLVQAGGSLRLSCDASGFTLAWNARGWSRQAPRKERELVATISRSGSSTSYADSVKGRFTISRDNAKNTVYLQMNSLKPEDTAVYYCAKSGRYGFWGQGTQVTVSS	high polyreactivity
QVQLVESGGGLVQAGGSLRLSCAASGSIFGPYAMGWYRQAPGKERELVATITSGGRTYYADSVKGRFTISRDNAKNTVYLQLNSLKPEDTAVYYCAAAGKGRYHFRSTMDYWGQGTQVTVSS	high polyreactivity
QVQLVESGVRLVQAGGSLRLSCASSAITFGKNAMGWYRQAPGTESELVAAITRDGGTNYADSVKGRFTISRDNAMNTVYLHMNILKPEDTAVYYCAKRAYIYYGRYDYWGQGTQVTVSS	low polyreactivity
QVQLVESGGGLVQAGGSLRLSCAASGRIFSYYAMGWYRQAPGKERELVATIDRSGDPTSYADSVKGRFTISRDNAMNTVYLKMNSLKPEDTAVYYCAATSKRARYDSWGQGTQVTVSS	high polyreactivity
QVQLVESGVGLVQAGGSLRISCAASGFIFDWNAMGWYRQAPGKERELVAAISSGGSTHYADSVKGRFTISRDNAKNTVYLQMNSLKPEDTAVYYCAARFPQWRYSRRTGERFDYWGQGTQVTVSS	low polyreactivity
QVQLVESGGGLVQAGGSLRLSCAASGNIFSWYAMGWYRQAPGKERELVAAITSGGITYYADSVKGRFTISRDNAKNTVYLQMNSLKPEDTAVYYCNIDVGFTRPLYYWGQGTQVTVSS	low polyreactivity
QVQLVETGGGLVLAGGSLRLSCAASGSTFRLYAMGWYRQAPGTARELVAAITSGGSTYYADAVKGRFTISRDNAKNTVYLQMNSLKPEDTAVYYCARLAGDSTYWWWLYLITQRDDYWGQGTQVTVSS	low polyreactivity
QVQLVDSGGGLVQAGGSLRLSCAASGLIFPYNAMGWYRQAPGKERELVAAIDSGVTTYYADSVKGRFTISRDNAKNTVYLQMNSLKPEDTAVYYCAAVGLPGPEGDSWGQGTQVTVSS	low polyreactivity
QVQLVESGGGLVQAGGSLRLSCAASGSIFADNAMGWYRQAPGKEMELVADISWSGGRTYYADSVKGRFTISRDNAKNTVYLQMNSLKPEDTAVYYCAARYRDYRAGFDYWGQGTQLTVSS	high polyreactivity
QVQLVESGGGLVQAGGSLRLSCAASGNTSGHNAMGWYRQAPGKERELVADIRTGDSTNYADSVKGRFTISRDNAKNTVYLQMNSLKPEDTAVYYCAADSAYDVTSYGYWGQGTQVTVSS	low polyreactivity
QVQLVESGGGLVQAGGSLRLSCAASGRIFGRYAMGWYRQAPGKERELVASITRRGGSTYYADSVKGRFTISRDNAKNTVYLQMNSLKPEDTAVYYCAAGGFSWEGDSWGQGTEVTVSS	high polyreactivity
QVQLVESGGGLVQAGGSLRISCAASGRTVWNTLGWYRQAPGKERELVAAISYSGGTTYYADSVKGRFTISRDNAKNTVYLQMNSLNPEDTAVYYCAAVRVLRGVKYNYWGQGTEVTVSS	high polyreactivity
QVQLEESGGGLVQAGGSLRLSCAASGRTFYGKAMGWYRNAPGKEWEFVASISYSGTTTYYADSVKGRFTISRDNAKNTVYLKMNSLKPEDTAVYYCAVESYPTDYGPRFGSWGQGTQVTVSS	low polyreactivity

Cited source for all entries: the nanobody polyreactivity screen of Harvey et al. (2022)
